Data origin: PubChem BioAssay AID1159580

- test.details: chemical genetic growth profiling, strain panel (AID 1159580);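 also: tested at 20 µM; growth read once vehicle control cultures reached saturation at 30 °C; 1 = growth at the plate median or of vehicle wells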
- condition.info: S. cerevisiae deletion strains, growth OD, locus YPR119W, strain clb2, hits give low values
About 2,000 (36%) of roughly 5,500 compounds were called active. Another 18% or so got no clear call; they are omitted. This is one part of the list.
quantity.kind: normalized growth

COC(=O)[C@]1(C)CC[C@]2(C)CC[C@]3(C)C4=CCc5c(cc(O)c(O)c5C)[C@]4(C)CC[C@@]3(C)C2C1 (stereo not given in full) | 0.971 (inactive)
O=C(O)/C=C/C=C/c1ccccc1 | 0.922 (active)
OC[C@@H](O)[C@@H](O[C@@H]1O[C@H](CO)[C@@H](O)[C@H](O)[C@H]1O)[C@H](O)[C@@H](O)CO | 1 (inactive)
CN1C(CC(=O)c2ccccc2)CCCC1CC(O)c1ccccc1 (stereo not given) | 0.992 (inactive)

Param item = CCCC(C)C1(CC)C(=O)N=C(S)NC1=O (stereo not given) ; retrieve measured normalized growth.
0.101 (active)

Recorded normalized growth for COc1ccccc1OCCNCC(O)COc1cccc2[nH]c3ccccc3c12 (stereo not given) , please?
1.02 (inactive)

Which normalized growth reading was recorded for the compound COC(=O)Oc1ccccc1C(=O)O ?
1.02 (inactive)

###

List of normalized growth values.
- test.details: chemical genetic growth profiling, strain panel (AID 1159580)
- condition.info: S. cerevisiae deletion strains, growth OD, locus YOL147C, strain pex11, hits give low values
Screen size: about 5,500 compounds; about 2,000 (36%) were called active. Inconclusive results (about 18%) are left out. The list shows a part of the results.
Returns: the value as a bare number; no unit string appended.

Nc1nc2ncc(C(=O)O)nc2c(=O)[nH]1 | 1.04
CC(C)NCC(O)c1ccc(O)c(O)c1 (configuration not stated) | 1

Reported normalized growth for CNC[C@@H](O)c1ccc(O)c(O)c1 : what is it?
0.989

Fill blank: measured normalized growth of the compound Cc1occc(=O)c1O is ____.
1.01

Give the measured normalized growth of NC[C@H](O)c1ccc(O)c(O)c1 .
1.01

Return reported normalized growth; argument: COc1c2c(cc3c1OCO3)CCN(C)C2
0.979

What value of measured normalized growth is listed for CCOP(=S)(OCC)SCn1c(=O)oc2cc(Cl)ccc21 ?
0.996

###

- test.details: chemical genetic growth profiling, strain panel (AID 1159580)
- condition.info: S. cerevisiae deletion strains, growth OD, locus YPR163C, strain tif3
About 2,000 (36%) of roughly 5,500 compounds were called active. Not shown: some 18% with an inconclusive outcome. No stated cut-off is given here; in the data, active means normalized growth mostly below about 0.91 (no sharp cut-off); inconclusive means no clear call, values can overlap the other calls; inactive means mostly above about 0.92. Some of the results follow.
Choose one outcome from this list and give only that: 1 = active, -1 = inactive

Cc1occc(=O)c1O | -1

Per the records of this test, what outcome belongs to NC(=NCCC[C@H](N)C(=O)O)NC(CCC(=O)O)C(=O)O (stereo not given in full) ?
-1

Entry CC1(C)C(O)CC(O)C2(C)C1CC(=O)C1(C)C2CCC2(C)C(C(=O)O)OC(=O)C3OC321 (stereo not given) : call = ?
-1

GET /call?item= O[N+]1=CC=CCC1=S.On1ccccc1=S.[Zn] returns the recorded outcome of this test.
1

Returns: the outcome recorded for NCC(CC(=O)O)c1ccc(Cl)s1 (stereo not given) in this assay.
-1

Record lookup: outcome of this test for CC(=O)Nc1cc([As](=O)(O)O)ccc1O ?
-1

Dear all, I need the recorded test outcome for CC(=O)OC1CC(OC(C)=O)C2(C)C(CC(OC(C)=O)C3(C)C2CCC2(C)C(c4ccoc4)CC4OC423)C1(C)C (stereo not given) , thank you.
-1

Please indicate how the test categorized CC(=O)O[C@@H]1C[C@@]2(C)[C@H](c3ccoc3)C[C@H]3O[C@]32[C@]2(C)C(=O)C(O)=C3C(C)(C)C(=O)C=C[C@]3(C)C12 (stereo not given in full) .
1

Each compound tested received a call. Report the one for CC(C)N(C(=O)SCC(Cl)=C(Cl)Cl)C(C)C .
-1

Entry O=[N+]([O-])c1cc(O)c(O)c([N+](=O)[O-])c1 : call = ?
-1

###

- test.details: chemical genetic growth profiling, strain panel (AID 1159580)
- condition.info: S. cerevisiae deletion strains, growth OD, locus YJL095W, strain BCK1, hits give low values
About 2,000 (36%) of roughly 5,500 compounds were called active. About 18% were inconclusive and are not listed. This is one part of the list.
quantity.kind: normalized growth
Just the number, please, no unit attached.

Recorded results for 2 compounds are shown here.
CCOC(=O)C1=C(N)OC2=C(C(=O)CC(C)(C)C2)C1c1ccc(Cl)cc1Cl (stereo unspecified) | 0.904
N#CC(C#N)=C/C=C(/Sc1ccc(F)c(Cl)c1)c1ccc(Cl)cc1 | 0.69

Which value of normalized growth has been reported for O=S(=O)(N/N=C\c1ccc(Cl)cc1)c1ccc(-c2ccccn2)s1 in the records?
0.961

Find the recorded normalized growth belonging to O=C(O[C@@H]1Cc2c(O)cc(O)cc2O[C@@H]1c1cc(O)c(O)c(O)c1-c1c([C@H]2Oc3cc(O)cc(O)c3C[C@H]2O)cc(O)c(O)c1O)c1cc(O)c(O)c(O)c1 and report it.
0.107

Field request: normalized growth | item: NC(=NCCC[C@H](N)C(=O)O)NC(CCC(=O)O)C(=O)O (stereo partly specified)
1.01

GET /values?readout=normalized growth&item= CC1(C)C(O)CC(O)C2(C)C1CC(O)C1(C)C2CCC2(C)C(c3ccoc3)CC3OC321 (stereo unspecified)
0.978

normalized growth lookup needed for Cc1nn(Cc2ccc(C(=O)Sc3ccc(C(F)(F)F)cn3)o2)c(C)c1Br , thanks.
0.827

I have this compound here, Cc1c(C)c(C)c(CSC(N)=Nc2ccc(F)cc2)c(C)c1C , and I need its recorded normalized growth.
0.925

Record request: normalized growth value, item FC(F)(F)c1cccc(NC(=S)Nc2ccccc2)c1
0.882

###

- test.details: chemical genetic growth profiling, strain panel (AID 1159580);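 also: tested at 20 µM; growth read once vehicle control cultures reached saturation at 30 °C; 1 = growth at the plate median or of vehicle wells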
- condition.info: S. cerevisiae deletion strains, growth OD, locus YDR159W, strain sac3, hits give low values
Screen size: about 5,500 compounds; about 2,000 (36%) were called active. Another 18% or so got no clear call; they are omitted. Some of the results follow.
Catalogue of normalized growth values
Give the value as a plain number.

Example entries begin here.
CC/C(=C(\c1ccccc1)c1ccc(OCCN(C)C)cc1)c1ccccc1 | 0.0992
CN(C)CCOc1ccc(/C(=C(/CCCl)c2ccccc2)c2ccccc2)cc1 | 0.0868

Entry under review: C/C=C/c1ccc2c(c1)OCO2 . Reported normalized growth?
1.02

// returns reported normalized growth for input CC(C)=CCC[C@](C)(O)C1CC=C(C)CC1 (stereo partly specified)
1

Tell me the measured normalized growth of COc1ccc(C(Cl)=C(c2ccc(OC)cc2)c2ccc(OC)cc2)cc1 , please.
1.01

# lookup: normalized growth of CC(=O)Nc1ccc(S(=O)(=O)c2ccc(NC(C)=O)cc2)cc1
0.97

###

- test.details: chemical genetic growth profiling, strain panel (AID 1159580);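 also: tested at 20 µM; growth read once vehicle control cultures reached saturation at 30 °C; 1 = growth at the plate median or of vehicle wells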
- condition.info: S. cerevisiae deletion strains, growth OD, locus YGL086W, strain mad1
Out of some 5,500 compounds screened, about 2,000 (36%) were called active. Not shown: some 18% with an inconclusive outcome. Rule as the data show it: active = normalized growth mostly below about 0.91 (no sharp cut-off); inconclusive = no clear call, values can overlap the other calls; inactive = mostly above about 0.92. This is one part of the list.
Parameter call: string, one of active, inactive

Below, 5 compounds whose answers are already recorded.
CC(C)(C)NC[C@@H](O)COc1nsnc1N1CCOCC1 | inactive
Cc1ccsc1/C=C/C1=NCCCN1C | inactive
Nc1nc2ncc(C(=O)O)nc2c(=O)[nH]1 | inactive
CC(=O)O[C@@H]1CC2C(C)(C)C=CC(=O)[C@]2(C)C2CC[C@@]3(C)[C@H](c4ccoc4)OC(=O)C4OC43[C@@]21C (stereo not given in full) | inactive
CC(=O)OC1CC(OC(C)=O)C2(C)C(CC(OC(C)=O)C3(C)C2CCC2(C)C(c4ccoc4)CC4OC423)C1(C)C (stereo not given) | inactive

Per the records of this test, what outcome belongs to CS(=O)(=O)CCCCN=C=S ?
active

Write down the call the test reported for this compound. Item: CC1(C)C(=O)C=C[C@@]2(C)C1=C(O)C(=O)[C@]1(C)C2CC[C@@]2(C)[C@H](c3ccoc3)C[C@H]3O[C@]321 (stereo not given in full)
active

Lab log entry: O=C(CCCCCCCCCCCCC1CCCC1)Nc1ccc(S(=O)(=O)c2ccc(NC(=O)CCCCCCCCCCCCC3CCCC3)cc2)cc1 — outcome as called in the assay?
inactive

So what was the verdict on CC1(C)C(=O)C=CC2(C)C3CCC4(C)C(c5ccoc5)CC5OC54C3C(O)CC12 (stereo not given) in this test?
inactive

Kindly provide the recorded test outcome for the following compound: C=C(CC)C(=O)c1ccc(OCC(=O)O)c(Cl)c1Cl
inactive

###

- test.details: chemical genetic growth profiling, strain panel (AID 1159580);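 also: tested at 20 µM; growth read once vehicle control cultures reached saturation at 30 °C; 1 = growth at the plate median or of vehicle wells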
- condition.info: S. cerevisiae deletion strains, growth OD, locus YDR137W, strain rgp1, hits give low values
The campaign covered roughly 5,500 compounds. About 2,000 (36%) were called active. Not shown: some 18% with an inconclusive outcome. The list shows a part of the results.
Label t when normalized growth < 1; otherwise f.

Solved cases (2 shown):
C=C(NC(=O)C(=C)NC(=O)c1csc(C2=NC3c4csc(n4)C4NC(=O)c5csc(n5)C(C(C)(O)C(C)O)NC(=O)C5CSC(=N5)C(=CC)NC(=O)C(C(C)O)NC(=O)c5csc(n5)C3(CC2)NC(=O)C(C)NC(=O)C(=C)NC(=O)C(C)NC(=O)C(C(C)CC)NC2C=Cc3c(C(C)O)cc(nc3C2O)C(=O)OC4C)n1)C(N)=O (centres undefined) | f
CS(=O)(=O)CCCCN=C=S | t

Given CCCC(C)C1(CC)C(=O)NC(=O)NC1=O (centres undefined) , is recorded normalized growth strictly lower than 1?
f

Please let me know if OC[C@@H]1CCCN2CCCC[C@H]12 shows normalized growth below 1.
f
